# systemTested: GlcNAc(b1-3)Gal(b1-4)GlcNAc(b1-2)Man(a1-3)[GlcNAc(b1-3)Gal(b1-4)GlcNAc(b1-2)Man(a1-6)]Man(b1-4)GlcNAc(b1-4)GlcNAc
# assayMethodText: glycan array binding signal (z-score within array); higher = stronger binding
# measurementContext: glycan notation: IUPAC condensed, linker removed
The entries come from a sample that favours the strongest signals as a whole.
endpointName: glycan array binding signal (z-score)
Write no unit; give the number alone.

Lab book: glycan array binding signal (z-score) of EULS2 M2 (Oryza sativa) (protein) MVYCRANPNYAMTARNGAVVLAPANPKDEYQHWIKDMRWSTSIKDEEGYPAFALVNKATGQAIKHSLGQSHPVRLVPYNPEVMDESVLWTESRDVGNGFRCIRMVNNIYLNFDAFHGDKYHGGVRDGTDIVLWKLCEGDSQRWKIQPYYILEQKLISEEDLNSAVDHHHHHH noted as -0.176

Data provenance: the supplement of paper PMC8728848
